Recorded CHI Log D, one value per entry.
# assayOverview: CHI Log D procedure
# Type: physicochemical
# reportedConditions: pH 7.4
measurementName: CHI Log D

{"compound": "CC[C@H](C)[C@H](NC(=O)[C@H](Cc1c[nH]cn1)NC(=O)[C@H](Cc1csc2ccccc12)NC(=O)[C@H](Cc1ccccc1)NC(=O)[C@]1(C)CCCCCCC=CCCCC2(CCCC=CC[C@]3(CCCN3C(C)=O)C(=O)N[C@@H](CC(=O)O)C(=O)N[C@@H](CC(C)C)C(=O)N2)C(=O)N[C@@H](CC(=O)O)C(=O)N[C@@H](CCC(=O)O)C(=O)N[C@@H](C)C(=O)N[C@@H](C)C(=O)N[C@@H](Cc2ccccc2)C(=O)N[C@@H](CC(N)=O)C(=O)N1)C(N)=O (stereo partly drawn) [I-741]", "measurementName": "CHI Log D", "reportedValue": 2.915}
{"compound": "CC(=O)N1CCC[C@]12CC=CCCCC1(CCCC=CCCCCCC[C@@](C)(C(=O)N[C@@H](Cc3ccccc3)C(=O)N[C@@H](Cc3csc4ccccc34)C(=O)N[C@@H](CCC(N)=O)C(N)=O)NC(=O)[C@H](CCC(N)=O)NC(=O)[C@H](Cc3ccccc3)NC(=O)[C@H](C)NC(=O)[C@H](C)NC(=O)[C@H](CCC(=O)O)NC(=O)[C@H](CC(=O)O)NC1=O)NC(=O)[C@H](CC(F)(F)F)NC(=O)[C@H](CC(=O)O)NC2=O (stereo partly drawn) [I-502]", "measurementName": "CHI Log D", "reportedValue": 2.171}
{"compound": "CC(=O)N1CCC[C@]12CC=CCCCC1(CCCC=CCCCCCC[C@@](C)(C(=O)N[C@@H](Cc3ccccc3)C(=O)N[C@@H](Cc3csc4ccccc34)C(=O)N[C@H](CC(N)=O)C(N)=O)NC(=O)[C@H](CC(N)=O)NC(=O)[C@H](Cc3ccccc3)NC(=O)[C@H](C)NC(=O)[C@H](C)NC(=O)[C@H](CCC(=O)O)NC(=O)[C@H](CC(=O)O)NC1=O)NC(=O)[C@H](CC(C)C)NC(=O)[C@H](CC(=O)O)NC2=O (stereo partly drawn) [I-758]", "measurementName": "CHI Log D", "reportedValue": 2.571}

----------
# assayOverview: Solubility in PBS
# Assay type: physicochemical
Form field: Solubility (one value per entry).

{"compound": "CC(=O)N1CCC[C@]12CC=CCCCC1(CCCC=CCCCOC(=O)N3CC[C@@](C(=O)N[C@@H](Cc4ccccc4)C(=O)N[C@@H](Cc4cccc5ccccc45)C(=O)N[C@@H](CCC(N)=O)C(N)=O)(C3)NC(=O)[C@H](CC(C)C)NC(=O)[C@H](Cc3ccccc3)NC(=O)[C@H](C)NC(=O)[C@H](C)NC(=O)[C@H]([C@@H](C)O)NC(=O)[C@H](CC(=O)O)NC1=O)NC(=O)[C@H](CC(C)(C)C)NC(=O)[C@H](CC(N)=O)NC2=O (stereo partly drawn)", "unitAnnotation": "µM", "Solubility": 10}
{"compound": "CC(=O)N1CCC[C@]12CC=CCCCC1(CCCC=CCCCOC(=O)N3CC[C@@](C(=O)N[C@@H](Cc4ccsc4)C(=O)N[C@@H](Cc4csc5ccccc45)C(=O)N[C@@H](CCC(N)=O)C(N)=O)(C3)NC(=O)[C@H](CC(N)=O)NC(=O)[C@H](Cc3ccccc3)NC(=O)[C@H](C)NC(=O)[C@H](C)NC(=O)[C@H](Cc3c[nH]cn3)NC(=O)[C@H](CC(=O)O)NC1=O)NC(=O)[C@H](CC(C)(C)C)NC(=O)[C@H](CC(=O)O)NC2=O (stereo partly drawn)", "unitAnnotation": "µM", "Solubility": 10}
{"compound": "CC(=O)N1CCC[C@]12CC=CCCCC1(CCCC=CCCCCCC[C@@](C)(C(=O)N[C@@H](Cc3ccccc3)C(=O)N[C@@H](Cc3csc4ccccc34)C(=O)N[C@@H](Cc3c[nH]cn3)C(N)=O)NC(=O)[C@H](CCC(N)=O)NC(=O)[C@H](Cc3ccccc3)NC(=O)[C@H](C)NC(=O)[C@H](C)NC(=O)[C@H](CCC(=O)O)NC(=O)[C@H](CC(=O)O)NC1=O)NC(=O)[C@H](C)NC(=O)[C@H](CC(=O)O)NC2=O (stereo partly drawn)", "unitAnnotation": "µM", "Solubility": 32}
{"compound": "CC(=O)N1CCC[C@]12CC=CCCCC1(CCCC=CCCCOC(=O)N3CC[C@@](C(=O)N[C@@H](Cc4ccsc4)C(=O)N[C@@H](Cc4csc5ccccc45)C(=O)N[C@@H](CO)C(N)=O)(C3)NC(=O)[C@H](Cc3ccccc3)NC(=O)[C@H](Cc3ccccc3)NC(=O)[C@H](C)NC(=O)[C@H](C)NC(=O)[C@H](Cc3cccc(C(=O)O)c3)NC(=O)[C@H](CC(=O)O)NC1=O)NC(=O)[C@H](CC(C)(C)C)NC(=O)[C@H](CC(=O)O)NC2=O (stereo partly drawn) [I-982]", "unitAnnotation": "µM", "Solubility": 16}
{"compound": "CC(=O)N1CCC[C@]12CC=CCCCC1(CCCC=CCCCCCC[C@@](C)(C(=O)N[C@@H](Cc3ccsc3)C(=O)N[C@@H](Cc3csc4ccccc34)C(=O)N[C@@H](CCC(N)=O)C(N)=O)NC(=O)[C@H](CC(N)=O)NC(=O)[C@H](Cc3ccccc3)NC(=O)[C@H](C)NC(=O)[C@H](C)NC(=O)[C@H](CC(=O)O)NC(=O)[C@H](CC(=O)O)NC1=O)NC(=O)[C@H](CC(C)(C)C)NC(=O)C[C@H](CC(=O)O)NC2=O (stereo partly drawn) [I-1163]", "unitAnnotation": "µM", "Solubility": 48}
{"compound": "CC(=O)N1CCC[C@]12CC=CCCCC1(CCCC=CCCCOC(=O)N3CC[C@@](C(=O)N[C@@H](Cc4ccccc4)C(=O)N[C@@H](Cc4csc5ccccc45)C(=O)N[C@@H](CCC(N)=O)C(N)=O)(C3)NC(=O)[C@H](CC(C)C)NC(=O)[C@H](Cc3ccccc3)NC(=O)[C@H](C)NC(=O)[C@H](CCCCNC(C)C)NC(=O)[C@H]([C@@H](C)O)NC(=O)[C@H](CC(=O)O)NC1=O)NC(=O)[C@H](C)NC(=O)[C@H](CC(N)=O)NC2=O (stereo partly drawn)", "unitAnnotation": "µM", "Solubility": 10}
{"compound": "CC(=O)N1CCC[C@]12CC=CCCCC1(CCCC=CCCCOC(=O)N3CC[C@@](C(=O)N[C@@H](Cc4ccsc4)C(=O)N[C@@H](Cc4csc5ccccc45)C(=O)N[C@@H](CO)C(N)=O)(C3)NC(=O)[C@H](CCO)NC(=O)[C@H](Cc3ccccc3)NC(=O)[C@H](C)NC(=O)[C@H](C)NC(=O)[C@H](CN(CC(=O)O)CC(F)(F)F)NC(=O)[C@H](CC(=O)O)NC1=O)NC(=O)[C@H](CC(C)(C)C)NC(=O)[C@H](CC(=O)O)NC2=O (stereo partly drawn) [I-958]", "unitAnnotation": "µM", "Solubility": 47}
{"compound": "CC(=O)N1CCC[C@]12CC=CCCCC1(CCCC=CCCCOC(=O)N3CC[C@@](C(=O)N[C@@H](Cc4ccccc4Cl)C(=O)N[C@@H](Cc4csc5ccccc45)C(=O)N[C@@H](CCC(N)=O)C(N)=O)(C3)NC(=O)[C@H](CO)NC(=O)[C@H](Cc3ccccc3)NC(=O)[C@H](CC(C)C)NC(=O)[C@H](CC(C)C)NC(=O)[C@H](CC(=O)O)NC(=O)[C@H](CC(=O)O)NC1=O)NC(=O)[C@H](CC1CCCCC1)NC(=O)[C@H](CC(=O)O)NC2=O (stereo partly drawn)", "unitAnnotation": "µM", "Solubility": 10}
{"compound": "C[C@@H]1NC(=O)[C@H](C)NC(=O)[C@H](CN(CC(=O)O)CC(F)(F)F)NC(=O)[C@H](Cc2ccsc2)NC(=O)C2(CCCC=CCCCOC(=O)N3CC[C@@](C(=O)N[C@@H](CC(=O)O)C(=O)N[C@@H](Cc4csc5ccccc45)C(=O)N[C@@H](CCC(N)=O)C(N)=O)(C3)NC(=O)[C@H](CC(N)=O)NC(=O)[C@H](Cc3ccccc3)NC1=O)CCCC=CC[C@]1(CCCN1C(=O)CN=[N+]=[N-])C(=O)N[C@@H](CC(=O)O)C(=O)N[C@@H](CC(C)(C)C)C(=O)N2 (stereo partly drawn) [I-1056]", "unitAnnotation": "µM", "Solubility": 41}

----------
# experimentalTarget: full-length beta-Catenin (Uniprot ID P35222) (Homo sapiens, UniProt P35222)
# Construct: 10 nM full-length beta-Catenin (Uniprot ID P35222)
# Sequence (P35222 whole entry): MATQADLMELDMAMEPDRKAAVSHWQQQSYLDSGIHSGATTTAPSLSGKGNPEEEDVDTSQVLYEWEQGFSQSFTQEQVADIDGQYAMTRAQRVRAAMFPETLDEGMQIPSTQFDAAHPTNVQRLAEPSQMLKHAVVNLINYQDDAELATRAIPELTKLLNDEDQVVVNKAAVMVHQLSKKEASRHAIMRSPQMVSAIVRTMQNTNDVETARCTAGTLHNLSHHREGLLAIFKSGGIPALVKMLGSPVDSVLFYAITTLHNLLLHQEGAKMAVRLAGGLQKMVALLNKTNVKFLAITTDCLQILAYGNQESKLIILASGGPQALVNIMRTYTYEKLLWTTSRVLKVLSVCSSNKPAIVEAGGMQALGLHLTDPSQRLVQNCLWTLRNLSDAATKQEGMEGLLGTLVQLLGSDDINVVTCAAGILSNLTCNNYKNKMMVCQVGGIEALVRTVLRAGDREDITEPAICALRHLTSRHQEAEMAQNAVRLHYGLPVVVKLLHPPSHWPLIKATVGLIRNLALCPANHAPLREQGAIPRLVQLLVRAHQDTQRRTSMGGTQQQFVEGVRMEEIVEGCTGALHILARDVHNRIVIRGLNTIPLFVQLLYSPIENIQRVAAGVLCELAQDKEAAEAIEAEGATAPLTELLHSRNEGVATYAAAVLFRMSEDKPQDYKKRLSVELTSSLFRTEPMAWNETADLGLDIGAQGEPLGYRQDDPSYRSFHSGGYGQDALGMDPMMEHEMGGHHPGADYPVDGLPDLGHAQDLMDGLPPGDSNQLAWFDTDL
# assayOverview: Fluorescence polarization IC50 (beta-catenin / 5FAM-TCF4 10-53 competition)
# Type: binding
# reportedConditions: fluorescence polarization; read-out: beta-Catenin FP IC50
measurementName: IC50 (nM)

{"compound": "CC(=O)N1CCC[C@]12CC=CCCCC1(CCCC=CCCCCCC[C@@](C)(C(=O)N[C@@H](Cc3ccccc3)C(=O)N[C@@H](Cc3csc4ccccc34)C(=O)N[C@@H](CCC(N)=O)C(N)=O)NC(=O)[C@H](CC(N)=O)NC(=O)[C@H](Cc3ccccc3)NC(=O)[C@H](C)NC(=O)[C@H](C)NC(=O)[C@H](CC(=O)O)NC(=O)[C@H](CC(=O)O)NC1=O)NC(=O)[C@H](C(C)C)NC(=O)[C@H](CC(=O)O)NC2=O (stereo partly drawn) [I-567]", "reportedValue": 37}
{"compound": "CC(=O)N1CCC[C@]12CC=CCCCC1(CCCC=CCCCOC(=O)N3CC[C@@](C(=O)N[C@@H](Cc4ccccc4)C(=O)N[C@@H](Cc4csc5ccccc45)C(=O)N[C@@H](CO)C(N)=O)(C3)NC(=O)[C@H]([C@@H](C)O)NC(=O)[C@H](Cc3cccc4ccccc34)NC(=O)[C@H](C)NC(=O)[C@H](C)NC(=O)[C@H]([C@@H](C)O)NC(=O)[C@H](CC(=O)O)NC1=O)NC(=O)[C@H](CC(C)(C)C)NC(=O)[C@H](CC(=O)O)NC2=O (stereo partly drawn) [I-1266]", "reportedValue": 755}
{"compound": "CC(=O)N1CCC[C@]12CC=CCCCC1(CCCC=CCCCOC(=O)N3CC[C@@](C(=O)N[C@@H](Cc4ccsc4)C(=O)N[C@@H](Cc4csc5ccccc45)C(=O)N[C@@H](CCC(N)=O)C(N)=O)(C3)NC(=O)[C@H](CCC(=O)N3CCn4cncc4C3)NC(=O)[C@H](Cc3ccccc3)NC(=O)[C@H](C)NC(=O)[C@H](C)NC(=O)[C@H](CN(CC(=O)O)CC(F)(F)F)NC(=O)[C@H](CC(=O)O)NC1=O)NC(=O)[C@H](CC(C)(C)C)NC(=O)[C@H](CC(=O)O)NC2=O (stereo partly drawn) [I-1934]", "reportedValue": 5}
